assay-explanation: Metabolic stability in rat liver microsomes assessed as compound remaining at 1 uM after 30 mins
Assay type: ADME, Microsome
applied-conditions: read-out: Stability
Exercise: state measured remaining at 0.5 h, 1 µM for each of the molecules provided.
One number for each entry, in %.

| molecule | value-type | reported-result |
| --- | --- | --- |
| CC(C)N1c2nc(-n3ccnc3-c3ccc(F)cc3)ncc2N(C)C(=O)C1(C)C | remaining at 0.5 h, 1 µM | 10 |
| CCC1C(=O)N(C)c2cnc(-n3ccnc3-c3ccc(F)cc3)nc2N1C1CCC(F)(F)C1 (racemic) | remaining at 0.5 h, 1 µM | 8 |

// below: remaining at 0.5 h, 1 µM requested for another molecule
Qu. Which remaining at 0.5 h, 1 µM is reported for this molecule? `CC[C@@H]1C(=O)N(C)c2cnc(-n3ccnc3-c3ccc(F)cc3)nc2N1C1COC1`
Ans. 80
